target: PRMT5 (Homo sapiens); construct: purchased Viva (custom protein); assay: PRMT5 biochemical IC50 assay with MTA as cofactor; conditions: PRMT5, MTA as cofactor; read-out: MTA IC50
Sequence (O14744 whole entry): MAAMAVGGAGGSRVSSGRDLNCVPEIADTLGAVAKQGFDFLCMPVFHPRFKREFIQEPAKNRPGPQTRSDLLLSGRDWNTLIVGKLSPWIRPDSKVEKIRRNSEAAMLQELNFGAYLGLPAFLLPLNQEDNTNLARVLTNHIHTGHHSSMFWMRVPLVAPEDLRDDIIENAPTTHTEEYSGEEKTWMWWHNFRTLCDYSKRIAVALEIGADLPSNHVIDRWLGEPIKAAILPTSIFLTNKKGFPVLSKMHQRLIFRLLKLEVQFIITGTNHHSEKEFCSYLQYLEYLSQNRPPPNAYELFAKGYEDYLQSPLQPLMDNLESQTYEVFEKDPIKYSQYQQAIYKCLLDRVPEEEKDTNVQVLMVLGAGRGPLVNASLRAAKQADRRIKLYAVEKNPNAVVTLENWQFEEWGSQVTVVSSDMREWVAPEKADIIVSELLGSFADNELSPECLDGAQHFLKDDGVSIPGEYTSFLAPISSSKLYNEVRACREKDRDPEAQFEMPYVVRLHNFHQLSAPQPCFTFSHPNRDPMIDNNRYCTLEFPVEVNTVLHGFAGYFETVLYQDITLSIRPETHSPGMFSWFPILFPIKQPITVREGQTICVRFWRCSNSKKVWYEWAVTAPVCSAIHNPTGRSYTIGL
Sequence (Q9BQA1 whole entry partner): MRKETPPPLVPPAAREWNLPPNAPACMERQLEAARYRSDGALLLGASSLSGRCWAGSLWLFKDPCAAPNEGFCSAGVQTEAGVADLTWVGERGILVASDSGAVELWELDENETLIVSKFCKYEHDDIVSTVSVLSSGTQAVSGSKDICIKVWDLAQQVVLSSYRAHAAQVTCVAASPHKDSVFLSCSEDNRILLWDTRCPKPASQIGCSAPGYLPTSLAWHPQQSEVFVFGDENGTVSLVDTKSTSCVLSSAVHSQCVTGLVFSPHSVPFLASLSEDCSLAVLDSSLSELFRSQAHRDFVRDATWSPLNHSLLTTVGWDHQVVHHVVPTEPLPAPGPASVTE
pIC50: −log10 of the molar value.
A collection of molecules and their measured pIC50

>  <MOLECULE>
Cc1cc(NC(=O)C(=O)N2C[C@@H](C)CC[C@@H]2c2cccc(C3CCN(C)CC3)c2)cnc1N (single isomer, unassigned) [Compound 1253]

>  <pIC50>
> 7.30

$$$$
>  <MOLECULE>
C[C@@H]1CC[C@@H](c2ccc3[nH]c(=O)ccc3c2)N(C(=O)C(=O)Nc2cncc(C(N)=O)c2)C1 (single isomer, unassigned) [Compound 804]

>  <pIC50>
< 6.30

$$$$
>  <MOLECULE>
C[C@H]1CC[C@H](c2cccc(C(F)(F)F)c2)N(C(=O)C(=O)Nc2cncc(C(N)=O)c2)C1 (single isomer, unassigned) [Compound 509]

>  <pIC50>
> 7.30

$$$$

In: Report pIC50 for CCc1cc(NC(=O)C(=O)N2C[C@H](C)CC[C@H]2c2ccc3c(c2)CNC3=O)cnc1N (single isomer, unassigned) [Compound 699]
Out: < 6.30

In: Report pIC50 for C[C@H]1CC[C@H](c2cccc(Cl)c2)N(C(=O)C(=O)Nc2cncc(C(N)=O)c2)C1 (single isomer, unassigned) [Compound 440]
Out: > 7.30

In: Report pIC50 for Cc1cc(NC(=O)C(=O)N2CCCCC2c2ccccc2)cnc1N (racemic) [Compound 53]
Out: > 7.30

In: Report pIC50 for COc1cccc([C@@H]2CC[C@@H](C)CN2C(=O)C(=O)Nc2cncc(C)c2)c1 (racemic) [Compound 28]
Out: 6.30 to 7.30

In: Report pIC50 for CCc1cc(NC(=O)C(=O)N2C[C@H](C)CC[C@H]2c2ccc3c(c2)CCC(=O)N3)cnc1N (single isomer, unassigned) [Compound 720]
Out: > 7.30

In: Report pIC50 for NC(=O)c1cncc(NC(=O)C(=O)N2CCCC3(CCSCC3)C2)c1 [Compound 166]
Out: 6.30 to 7.30

In: Report pIC50 for Cc1cc(NC(=O)C(=O)N2C[C@H](C)CC[C@H]2c2ccc3c(c2)CCC(=O)N3)cnc1C (relative stereo) [Compound 632]
Out: > 7.30

In: Report pIC50 for C[C@H]1CC[C@H](c2ccc3sncc3c2)N(C(=O)C(=O)Nc2cnc(N)c(C3CC3)c2)C1 (single isomer, unassigned) [Compound 1153]
Out: > 7.30

In: Report pIC50 for CNC(=O)[C@@H]1CC[C@H](c2ccccc2)N(C(=O)C(=O)Nc2cnc(N)c(C)c2)C1 (racemic) [Compound 253]
Out: 6.30 to 7.30

In: Report pIC50 for Cc1cc(NC(=O)C(=O)N2C[C@@H](C)CC[C@@H]2c2ccc(NS(C)(=O)=O)cc2)cnc1N (single isomer, unassigned) [Compound 506]
Out: < 6.30

* * *

biological target: PRMT5 (Homo sapiens); construct: purchased Viva (custom protein); assay: PRMT5 biochemical IC50 assay with no cofactor; settings: PRMT5, no cofactor; read-out: No Cofactor/ rel IC50
pIC50: −log10 of the molar value.
READOUT KIND: pIC50

Look over these answered cases.
>  <COMPOUND>
Cc1cc(NC(=O)C(=O)N2CCCCC2C2CCCCC2)cnc1N (stereo not drawn) [Compound 30]

>  <MEAS VALUE>
6.30 to 7.30

$$$$
>  <COMPOUND>
CCc1cc(NC(=O)C(=O)N2C[C@@H](C)[C@@H](OC)C[C@@H]2c2ccc3scnc3c2)cnc1N (single isomer, unassigned) [Compound 1286]

>  <MEAS VALUE>
> 7.30

$$$$
>  <COMPOUND>
CC(C)C1CCCCN1C(=O)C(=O)Nc1cncc(C(N)=O)c1 (stereo not drawn) [Compound 100]

>  <MEAS VALUE>
< 6.30

$$$$
>  <COMPOUND>
CCc1cc(NC(=O)C(=O)N2C[C@@H](C)CC[C@@H]2c2ccc3sc(CCCN(C)C)nc3c2)cnc1N [Compound 1262]

>  <MEAS VALUE>
> 7.30

$$$$
>  <COMPOUND>
Cc1cc([C@@H]2CC[C@@H](C)CN2C(=O)C(=O)Nc2cncc(C(N)=O)c2)ccc1F (racemic) [Compound 131]

>  <MEAS VALUE>
6.30 to 7.30

$$$$
>  <COMPOUND>
COc1ncc(NC(=O)C(=O)N2C[C@@H](C)CC[C@@H]2c2ccc(CCN(C)C)c(Cl)c2)cc1C(N)=O [Compound 1341]

>  <MEAS VALUE>
> 7.30

$$$$
>  <COMPOUND>
C[C@@H]1CC[C@@H](c2ccnn2C)N(C(=O)C(=O)Nc2cncc(C(N)=O)c2)C1 (racemic) [Compound 81]

>  <MEAS VALUE>
< 6.30

$$$$
>  <COMPOUND>
Cc1ncc([C@@H]2CC[C@@H](C)CN2C(=O)C(=O)Nc2cnc(N)c(C)c2)cn1 (racemic) [Compound 107]

>  <MEAS VALUE>
< 6.30

$$$$
>  <COMPOUND>
CCc1cc(NC(=O)C(=O)N2C[C@@H](C)CC[C@@H]2c2ccc3sc(C4CCN(C5CC5)CC4)nc3c2)cnc1N [Compound 1330]

>  <MEAS VALUE>
> 7.30

$$$$
>  <COMPOUND>
CCc1cc(NC(=O)C(=O)N2C[C@@H](C)CC[C@@H]2c2cccc(OCCN3CCCC3)c2)cnc1N [Compound 1391]

>  <MEAS VALUE>
> 7.30

$$$$

In: Report pIC50 for C[C@H]1CC[C@H](c2cccnc2)N(C(=O)C(=O)Nc2cncc(C(N)=O)c2)C1 (single isomer, unassigned) [Compound 105]
Out: < 6.30

In: Report pIC50 for Cc1cc(NC(=O)C(=O)N2CCCC[C@H]2c2ccncc2)cnc1N (single isomer, unassigned) [Compound 47]
Out: < 6.30

In: Report pIC50 for COc1ncc(NC(=O)C(=O)N2C[C@@H](C)CC[C@@H]2c2ccc3cn(C4CCN(C)CC4)nc3c2)cc1C(N)=O (racemic) [Compound 1299]
Out: > 7.30

In: Report pIC50 for Cc1cccc([C@H]2CCCCN2C(=O)C(=O)Nc2cnc(N)c(C)c2)c1 (single isomer, unassigned) [Compound 54]
Out: 6.30 to 7.30

In: Report pIC50 for COc1ncc(NC(=O)C(=O)N2C[C@@H](C)CC[C@@H]2c2cccc(OCCN(C)C)c2)cc1C(N)=O [Compound 1352]
Out: > 7.30

In: Report pIC50 for Cc1cc(NC(=O)C(=O)N2C[C@@H](C)CC[C@@H]2c2ccc(CCN(C)C)cc2)cnc1N (single isomer, unassigned) [Compound 1322]
Out: < 6.30

In: Report pIC50 for COc1ncc(NC(=O)C(=O)N2C[C@@H](C)CC[C@@H]2c2ccc3sc(CCN4CCCC4)nc3c2)cc1C(N)=O [Compound 1288]
Out: 6.30 to 7.30

In: Report pIC50 for Cc1cc(NC(=O)C(=O)N2C[C@@H]3CC[C@@H](C3)[C@@H]2c2ccccc2)cnc1N (single isomer, unassigned) [Compound 62]
Out: < 6.30

In: Report pIC50 for CCc1cc(NC(=O)C(=O)N2C[C@@H](C)CC[C@@H]2c2ccc3sc([C@H]4COCCN4C)nc3c2)cnc1N [Compound 1245]
Out: > 7.30

In: Report pIC50 for C[C@@H]1CC[C@H](C2CCCCC2)N(C(=O)C(=O)Nc2cncc(C(N)=O)c2)C1 (single isomer, unassigned) [Compound 127]
Out: < 6.30

In: Report pIC50 for CCc1cc(NC(=O)C(=O)N2C[C@@H](C)CC[C@@H]2c2ccc3sc(CCN4CCOCC4)nc3c2)cnc1N [Compound 1248]
Out: > 7.30

In: Report pIC50 for CCc1cc(NC(=O)C(=O)N2C[C@@H](C)CC[C@@H]2c2cc(Cl)cc(OCCN(C)C)c2)cnc1N [Compound 1247]
Out: > 7.30
